Tested on: Cryptococcus neoformans
Assay: Antifungal activity against Cryptococcus neoformans serotype A after 72 hrs by broth microdilution method
Type: functional
experimental-endpoint: log10 of MIC50 (log10 of the value in µg/mL)
The base-10 logarithm of MIC50, taken with MIC50 in µg/mL, is what appears here.

Known log10 of MIC50 results, listed for orientation:
INSERT INTO results (smiles_input, study_target, test_value) VALUES
  ('C[C@@H](c1nc(-c2ccc(C#N)cc2)cs1)[C@](O)(Cn1cncn1)c1cc(F)ccc1F', 'Cryptococcus neoformans', -1.52),
  ('Nc1nc(=O)[nH]cc1F', 'Cryptococcus neoformans', 0.60),
  ('CC[C@@H]([C@H](C)O)n1ncn(-c2ccc(N3CCN(c4ccc(OC[C@@H]5CO[C@@](Cn6cncn6)(c6ccc(F)cc6F)C5)cc4)CC3)cc2)c1=O', 'Cryptococcus neoformans', -1.22),
  ('C[C@@H]1[C@H](O)[C@@H](C)/C=C/C=C/C=C/C=C/C=C/C=C/C=C/[C@H](O[C@@H]2O[C@H](C)[C@@H](O)[C@H](N)[C@@H]2O)C[C@@H]2O[C@](O)(C[C@@H](O)C[C@@H](O)[C@H](O)CC[C@@H](O)C[C@@H](O)CC(=O)O[C@H]1C)C[C@H](O)[C@H]2C(=O)O', 'Cryptococcus neoformans', -0.60),
  ('OC(Cn1cncn1)(Cn1cncn1)c1ccc(F)cc1F', 'Cryptococcus neoformans', 0.30);

# context switch: different molecule, same log10 of MIC50
Value of log10 of MIC50 reported for the molecule C[C@@H](c1ncncc1F)[C@](O)(Cn1cncn1)c1ccc(F)cc1F is -1.22

* * *

System: Cryptococcus neoformans
Assay: Antifungal activity against Cryptococcus neoformans serotype A after 72 hrs by broth microdilution method
Assay type: functional
experimental-endpoint: MIC90 (mg/L)
Answer format: numeric, mg/L implied, no suffix.

INSERT INTO measurements (compound, study_target, test_value) VALUES
  ('C[C@@H](c1ncncc1F)[C@](O)(Cn1cncn1)c1ccc(F)cc1F [VORICONAZOLE]', 'Cryptococcus neoformans', 0.25);

Value of MIC90 reported for the compound C[C@@H]1[C@H](O)[C@@H](C)/C=C/C=C/C=C/C=C/C=C/C=C/C=C/[C@H](O[C@@H]2O[C@H](C)[C@@H](O)[C@H](N)[C@@H]2O)C[C@@H]2O[C@](O)(C[C@@H](O)C[C@@H](O)[C@H](O)CC[C@@H](O)C[C@@H](O)CC(=O)O[C@H]1C)C[C@H](O)[C@H]2C(=O)O [AMPHOTERICIN B] is 0.5

Value of MIC90 reported for the compound C[C@@H](c1nc(-c2ccc(C#N)cc2)cs1)[C@](O)(Cn1cncn1)c1cc(F)ccc1F [ISAVUCONAZOLE] is 0.125

Value of MIC90 reported for the compound CC[C@@H]([C@H](C)O)n1ncn(-c2ccc(N3CCN(c4ccc(OC[C@@H]5CO[C@@](Cn6cncn6)(c6ccc(F)cc6F)C5)cc4)CC3)cc2)c1=O [POSACONAZOLE] is 0.25

Value of MIC90 reported for the compound Nc1nc(=O)[nH]cc1F [FLUCYTOSINE] is 4

Value of MIC90 reported for the compound OC(Cn1cncn1)(Cn1cncn1)c1ccc(F)cc1F [FLUCONAZOLE] is 4

* * *

Documented MIC50 across a set of compounds
Tested on: Cryptococcus neoformans
Experiment: Antifungal activity against Cryptococcus neoformans serotype AD after 72 hrs by broth microdilution method
Format: functional
Answer format: numeric, µg/mL implied, no suffix.

INSERT INTO assay_data (smiles_input, study_target, unit_info, test_value) VALUES
  ('Nc1nc(=O)[nH]cc1F', 'Cryptococcus neoformans', 'µg/mL', 4);

Value of MIC50 reported for the compound CC[C@@H]([C@H](C)O)n1ncn(-c2ccc(N3CCN(c4ccc(OC[C@@H]5CO[C@@](Cn6cncn6)(c6ccc(F)cc6F)C5)cc4)CC3)cc2)c1=O is 0.03

Value of MIC50 reported for the compound OC(Cn1cncn1)(Cn1cncn1)c1ccc(F)cc1F is 2

Value of MIC50 reported for the compound C[C@@H]1[C@H](O)[C@@H](C)/C=C/C=C/C=C/C=C/C=C/C=C/C=C/[C@H](O[C@@H]2O[C@H](C)[C@@H](O)[C@H](N)[C@@H]2O)C[C@@H]2O[C@](O)(C[C@@H](O)C[C@@H](O)[C@H](O)CC[C@@H](O)C[C@@H](O)CC(=O)O[C@H]1C)C[C@H](O)[C@H]2C(=O)O is 0.25
